pIC50 overview
target: human ACC2 (Homo sapiens (Human), UniProt O00763)
Sequence (O00763 129-2458): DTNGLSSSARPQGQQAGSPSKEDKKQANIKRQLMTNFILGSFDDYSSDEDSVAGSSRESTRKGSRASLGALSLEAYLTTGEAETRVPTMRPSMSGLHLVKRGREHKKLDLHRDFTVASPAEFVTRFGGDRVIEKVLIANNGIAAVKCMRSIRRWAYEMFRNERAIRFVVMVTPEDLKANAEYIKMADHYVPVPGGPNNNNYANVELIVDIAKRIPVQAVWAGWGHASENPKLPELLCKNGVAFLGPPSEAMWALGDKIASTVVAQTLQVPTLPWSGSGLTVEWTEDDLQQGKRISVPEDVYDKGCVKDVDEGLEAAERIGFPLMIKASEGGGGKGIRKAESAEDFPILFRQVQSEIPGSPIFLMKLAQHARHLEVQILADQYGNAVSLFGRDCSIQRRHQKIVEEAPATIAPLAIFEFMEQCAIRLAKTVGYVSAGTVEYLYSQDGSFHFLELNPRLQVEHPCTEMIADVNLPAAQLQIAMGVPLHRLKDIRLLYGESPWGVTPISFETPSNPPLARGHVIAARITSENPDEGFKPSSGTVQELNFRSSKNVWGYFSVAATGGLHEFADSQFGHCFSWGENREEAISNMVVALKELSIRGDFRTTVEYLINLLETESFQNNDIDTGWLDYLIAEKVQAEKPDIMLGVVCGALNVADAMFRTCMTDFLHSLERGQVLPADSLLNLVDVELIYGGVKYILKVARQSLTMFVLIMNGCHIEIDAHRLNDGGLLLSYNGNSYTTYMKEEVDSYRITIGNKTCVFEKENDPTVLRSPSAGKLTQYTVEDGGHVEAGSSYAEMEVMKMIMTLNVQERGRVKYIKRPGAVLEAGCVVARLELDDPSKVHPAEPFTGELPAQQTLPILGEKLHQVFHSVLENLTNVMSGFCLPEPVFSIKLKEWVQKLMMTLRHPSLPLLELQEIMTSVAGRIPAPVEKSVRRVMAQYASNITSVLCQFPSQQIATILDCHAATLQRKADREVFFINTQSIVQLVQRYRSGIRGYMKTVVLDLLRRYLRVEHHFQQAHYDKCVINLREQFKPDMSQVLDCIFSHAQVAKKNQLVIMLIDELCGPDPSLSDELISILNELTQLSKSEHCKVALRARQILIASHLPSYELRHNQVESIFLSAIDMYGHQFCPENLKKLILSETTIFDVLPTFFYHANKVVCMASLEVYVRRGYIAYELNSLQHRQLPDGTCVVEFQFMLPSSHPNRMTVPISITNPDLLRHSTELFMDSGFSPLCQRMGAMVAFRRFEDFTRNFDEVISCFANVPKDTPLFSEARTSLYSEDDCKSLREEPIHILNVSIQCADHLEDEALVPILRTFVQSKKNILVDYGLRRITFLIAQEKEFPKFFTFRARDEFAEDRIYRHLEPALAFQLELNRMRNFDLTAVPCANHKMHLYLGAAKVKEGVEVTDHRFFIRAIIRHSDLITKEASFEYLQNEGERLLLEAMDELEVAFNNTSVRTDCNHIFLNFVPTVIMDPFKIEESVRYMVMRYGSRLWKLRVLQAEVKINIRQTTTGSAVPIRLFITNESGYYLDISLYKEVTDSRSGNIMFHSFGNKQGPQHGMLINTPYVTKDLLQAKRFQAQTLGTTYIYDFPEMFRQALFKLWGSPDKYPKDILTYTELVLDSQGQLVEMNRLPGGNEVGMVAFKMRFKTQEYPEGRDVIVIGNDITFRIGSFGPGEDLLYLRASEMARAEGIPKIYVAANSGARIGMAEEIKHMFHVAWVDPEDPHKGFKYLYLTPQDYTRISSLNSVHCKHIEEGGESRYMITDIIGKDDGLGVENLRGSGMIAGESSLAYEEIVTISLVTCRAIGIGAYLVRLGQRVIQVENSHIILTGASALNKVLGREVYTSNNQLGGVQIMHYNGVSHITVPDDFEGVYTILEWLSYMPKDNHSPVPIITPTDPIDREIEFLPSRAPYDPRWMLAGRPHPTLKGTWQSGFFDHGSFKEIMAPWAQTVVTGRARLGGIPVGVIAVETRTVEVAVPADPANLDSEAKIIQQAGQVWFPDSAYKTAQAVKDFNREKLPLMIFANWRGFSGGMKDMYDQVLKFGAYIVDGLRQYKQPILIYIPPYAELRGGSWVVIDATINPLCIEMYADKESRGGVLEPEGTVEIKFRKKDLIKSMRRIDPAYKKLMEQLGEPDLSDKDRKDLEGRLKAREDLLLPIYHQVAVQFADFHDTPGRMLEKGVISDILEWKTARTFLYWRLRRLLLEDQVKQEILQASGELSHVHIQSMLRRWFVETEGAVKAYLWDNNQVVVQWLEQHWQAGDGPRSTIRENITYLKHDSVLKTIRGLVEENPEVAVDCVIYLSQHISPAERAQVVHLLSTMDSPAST
Answer as the number alone; pIC50 is minus log10 of concentration in mol/L.

Use these answered entries as a reference point.
>  <compound>
CC(=O)NC(C)Cc1ccc(C#Cc2ccnc(OC(C)C)c2)cc1 (stereo not drawn)

>  <measured_endpoint>
pIC50

>  <obs_value>
6.85

$$$$
>  <compound>
CC(=O)NC(C)c1ccc(C#Cc2ccc(OC3CC3)cc2)cc1 (stereo not drawn)

>  <measured_endpoint>
pIC50

>  <obs_value>
7.15

$$$$
>  <compound>
CC(=O)NC(C)Cc1ccc(C#Cc2ccc(OC(C)C)cc2)cc1 (stereo not drawn)

>  <measured_endpoint>
pIC50

>  <obs_value>
6.60

$$$$
>  <compound>
CCOc1ccc(C#Cc2ccc(CC(C)NC(=O)c3oc(C)nc3C)cc2)cc1 (stereo not drawn)

>  <measured_endpoint>
pIC50

>  <obs_value>
6.00

$$$$
>  <compound>
CCOc1ccc(C#Cc2ccc(CC(C)NC(=O)CNC)cc2)cc1 (stereo not drawn)

>  <measured_endpoint>
pIC50

>  <obs_value>
5.57

$$$$
>  <compound>
CC(=O)NC(C)Cc1ccc(C#Cc2cnc(NCC(C)C)nc2)cc1 (stereo not drawn)

>  <measured_endpoint>
pIC50

>  <obs_value>
6.59

$$$$

Q: Give pIC50 for this entry on human ACC2 (Homo sapiens (Human), UniProt O00763): CC(=O)NC(C)Cc1ccc(C#Cc2ccc(OCC(C)C)cc2)cc1 (stereo not drawn)
A: 6.96

Q: Give pIC50 for this entry on human ACC2 (Homo sapiens (Human), UniProt O00763): CCOc1ccc(C#Cc2ccc(CC(C)NC(=O)C3CC3C)cc2)cc1 (stereo not drawn)
A: 6.42

Q: Give pIC50 for this entry on human ACC2 (Homo sapiens (Human), UniProt O00763): CC(=O)NC(C)Cc1ccc(C#Cc2cccc(C(=O)N(C)Cc3ccncc3)c2)cc1 (stereo not drawn)
A: 4.87

Q: Give pIC50 for this entry on human ACC2 (Homo sapiens (Human), UniProt O00763): CC(=O)N[C@@H](C)c1ccc(C#Cc2cnc(N3CC4CCCC4C3)nc2)cc1 (stereo partly drawn)
A: 6.57

Q: Give pIC50 for this entry on human ACC2 (Homo sapiens (Human), UniProt O00763): CCOc1ccc(C#Cc2ccc(CC(C)NC(=O)c3cc[nH]n3)cc2)cc1 (stereo not drawn)
A: 5.80

Q: Give pIC50 for this entry on human ACC2 (Homo sapiens (Human), UniProt O00763): CCC(CC)Nc1ncc(C#Cc2ccc(CC(C)NC(C)=O)cc2)cn1 (stereo not drawn)
A: 6.48

Q: Give pIC50 for this entry on human ACC2 (Homo sapiens (Human), UniProt O00763): CCOc1cc(C#Cc2ccc(CC(C)NC(=O)N(C)C)cc2)ccn1 (stereo not drawn)
A: 6.22

Q: Give pIC50 for this entry on human ACC2 (Homo sapiens (Human), UniProt O00763): CC(=O)NC(C)Cc1ccc(C#Cc2cnc(NC3CCCC3)nc2)cc1 (stereo not drawn)
A: 6.66

Q: Give pIC50 for this entry on human ACC2 (Homo sapiens (Human), UniProt O00763): CCOc1ccc(C#Cc2ccc(CC(C)NC(=O)OC)cc2)cc1 (stereo not drawn)
A: 6.51

Q: Give pIC50 for this entry on human ACC2 (Homo sapiens (Human), UniProt O00763): COc1ccccc1CNc1ncc(C#Cc2ccc(CC(C)NC(C)=O)cc2)cn1 (stereo not drawn)
A: 6.32

Q: Give pIC50 for this entry on human ACC2 (Homo sapiens (Human), UniProt O00763): CCOc1ccc(C#Cc2ccc(CC(C)NC(=O)CCNC(C)=O)cc2)cc1 (stereo not drawn)
A: 5.89

Q: Give pIC50 for this entry on human ACC2 (Homo sapiens (Human), UniProt O00763): CC(Cc1ccc(C#Cc2ccc(OC3CC3)cc2)cc1)NC(=O)C1CC1 (stereo not drawn)
A: 6.82

Q: Give pIC50 for this entry on human ACC2 (Homo sapiens (Human), UniProt O00763): CCOc1ccc(C#Cc2ccc(CC(C)NC(=O)c3ccccc3)cc2)cc1 (stereo not drawn)
A: 5.55

###

List of IC50 tested on human ACC2 (Homo sapiens (Human), UniProt O00763).
Write down the numeric answer in nM and omit the unit.

Use these answered entries as a reference point.
>  <compound>
CC(=O)NC(C)Cc1ccc(C#Cc2cnc(OCC3CC3(F)F)nc2)cc1 (stereo not drawn)

>  <study_target>
human ACC2 (Homo sapiens (Human), UniProt O00763)

>  <unit_text>
nM

>  <obs_value>
180

$$$$
>  <compound>
CCOc1ccc(C#Cc2ccc(C(C)NC(=O)c3cncs3)cc2)cc1 (stereo not drawn)

>  <study_target>
human ACC2 (Homo sapiens (Human), UniProt O00763)

>  <unit_text>
nM

>  <obs_value>
370

$$$$
>  <compound>
CC(=O)NC(C)Cc1ccc(C#Cc2cnc(OC(C)C)nc2)cc1 (stereo not drawn)

>  <study_target>
human ACC2 (Homo sapiens (Human), UniProt O00763)

>  <unit_text>
nM

>  <obs_value>
380

$$$$
>  <compound>
CCCOc1ccc(C#Cc2ccc(CC(C)NC(=O)C3CC3)cc2)cn1 (stereo not drawn)

>  <study_target>
human ACC2 (Homo sapiens (Human), UniProt O00763)

>  <unit_text>
nM

>  <obs_value>
800

$$$$
>  <compound>
CCCOc1ccc(C#Cc2ccc(C(C)(C)CNC(C)=O)cc2)cc1

>  <study_target>
human ACC2 (Homo sapiens (Human), UniProt O00763)

>  <unit_text>
nM

>  <obs_value>
140

$$$$

Q: Give IC50 for this entry on human ACC2 (Homo sapiens (Human), UniProt O00763): COCCCOc1cccc(C#Cc2ccc(CC(C)NC(C)=O)cc2)c1 (stereo not drawn)
A: 630

Q: Give IC50 for this entry on human ACC2 (Homo sapiens (Human), UniProt O00763): CC(=O)NC(C)Cc1ccc(C#Cc2ccc(C(=O)NCc3ccccc3)cc2)cc1 (stereo not drawn)
A: 2300

Q: Give IC50 for this entry on human ACC2 (Homo sapiens (Human), UniProt O00763): `CCOc1ccc(C#Cc2ccc(C[C@H](C)NC(C)=O)cc2)cc1`
A: 80

Q: Give IC50 for this entry on human ACC2 (Homo sapiens (Human), UniProt O00763): CCOc1ccc(C#Cc2ccc(CCC(C)NC(C)=O)cc2)cn1 (stereo not drawn)
A: 280

###

target: human ACC2 (Homo sapiens (Human), UniProt O00763)
Each record is given 1 (yes) if its reported IC50 is strictly below 800 nM. Records at or above 800 nM are given 0 (no).

>  <compound>
CCOc1ccc(C#Cc2ccc(CC(C)NC(=O)c3cncs3)cc2)cc1 (stereo not drawn)

>  <study_target>
human ACC2 (Homo sapiens (Human), UniProt O00763)

>  <assigned_label>
1 (yes)

$$$$
>  <compound>
CC(Cc1ccc(C#Cc2ccc(Oc3ccccc3)nc2)cc1)NC(=O)C1CC1 (stereo not drawn)

>  <study_target>
human ACC2 (Homo sapiens (Human), UniProt O00763)

>  <assigned_label>
1 (yes)

$$$$

Q: A record lists CC(Cc1ccc(C#Cc2ccc(OC3CCCC3)cc2)cc1)NC(=O)C1CC1 (stereo not drawn) . Is its IC50 below 800 nM?
A: 1 (yes)

Q: A record lists CC(=O)NC(C)Cc1ccc(C#Cc2ccc(OCc3ccoc3)cc2)cc1 (stereo not drawn) . Is its IC50 below 800 nM?
A: 1 (yes)

Q: A record lists CC(=O)NC(C)Cc1ccc(C#Cc2ccc3cc[nH]c3c2)cc1 (stereo not drawn) . Is its IC50 below 800 nM?
A: 1 (yes)

Q: A record lists COCCOc1ncc(C#Cc2ccc(CC(C)NC(C)=O)cc2)cn1 (stereo not drawn) . Is its IC50 below 800 nM?
A: 0 (no)

Q: A record lists CC(=O)NC(C)Cc1ccc(C#Cc2cccc(C(C)=O)c2)cc1 (stereo not drawn) . Is its IC50 below 800 nM?
A: 0 (no)

###

biological target: human ACC2 (Homo sapiens (Human), UniProt O00763)
Each record is given Fulfilled if its reported IC50 is strictly below 2 µM. Records at or above 2 µM are given Not fulfilled.

Here's what some known entries look like.
>  <molecule>
CC(=O)NC(C)Cc1ccc(C#Cc2ccn(C(C)C)c(=O)c2)cc1 (stereo not drawn)

>  <study_target>
human ACC2 (Homo sapiens (Human), UniProt O00763)

>  <assigned_label>
Not fulfilled

$$$$
>  <molecule>
CCOc1cc(C#Cc2ccc(C[C@H](C)NC(C)=O)cc2)ccn1 (stereo in doubt)

>  <study_target>
human ACC2 (Homo sapiens (Human), UniProt O00763)

>  <assigned_label>
Fulfilled

$$$$
>  <molecule>
CCOc1ccc(C#Cc2ccc(CC(C)NC(=O)C3CCC3)cc2)cc1 (stereo not drawn)

>  <study_target>
human ACC2 (Homo sapiens (Human), UniProt O00763)

>  <assigned_label>
Fulfilled

$$$$
>  <molecule>
CCCOc1ccc(C#Cc2ccc(CC(C)NC(C)=O)cc2)nc1 (stereo not drawn)

>  <study_target>
human ACC2 (Homo sapiens (Human), UniProt O00763)

>  <assigned_label>
Fulfilled

$$$$
>  <molecule>
CC(=O)NC(C)Cc1ccc(C#Cc2ccc(OCCN3CCOCC3)cc2)cc1 (stereo not drawn)

>  <study_target>
human ACC2 (Homo sapiens (Human), UniProt O00763)

>  <assigned_label>
Not fulfilled

$$$$

Could you now look at the following molecule, please?
Q: A record lists CCN(C)c1nccc(C#Cc2ccc(CC(C)NC(C)=O)cc2)n1 (stereo not drawn) . Is its IC50 below 2 µM?
A: Fulfilled
